target: MCH receptor (Homo sapiens); construct: expressed in transfected cells; host or cells: CHO cells; assay: MCH Receptor Binding Assay ([125I]-MCH SPA, membranes from CHO cells expressing the MCH receptor); details: CHO cell membranes, [125I]-MCH, read-out: MCH Receptor Activity (Ki rating)
readout_kind: Ki

Field: example entries. Status: answers known.
CCCCOc1ccsc1C(=O)N1CCC(N2CCN([C@@H](C)c3ccc(-c4cc(Cl)cc(Cl)c4)cc3)[C@H](C)C2)CC1 [Example 8]
6 to 10 nM
CCCOc1ccsc1C(=O)N1CCC(N2CCN([C@@H](C)c3ccc(CCc4ccc(C(F)(F)F)cc4)cc3)[C@H](C)C2)CC1
6 to 10 nM

// switching to the query compound
[in] Given the entry `C[C@@H]1CN(C2(C)CCN(C(=O)c3sccc3OCC3CC3)CC2)CCN1[C@@H](C)c1ccc(-c2cc(Cl)cc(Cl)c2)cc1` , what Ki was observed with MCH receptor (Homo sapiens)?
[out] 6 to 10 nM

----------
Let's look at some molecules and their measured pKi.
target: MCH receptor (Homo sapiens, UniProt Q99705); construct: expressed in transfected cells; host or cells: CHO cells; test: MCH Receptor Binding Assay ([125I]-MCH SPA, membranes from CHO cells expressing the MCH receptor); details: CHO cell membranes, [125I]-MCH, read-out: MCH Receptor Activity (Ki rating)
Sequence (Q99705 whole entry): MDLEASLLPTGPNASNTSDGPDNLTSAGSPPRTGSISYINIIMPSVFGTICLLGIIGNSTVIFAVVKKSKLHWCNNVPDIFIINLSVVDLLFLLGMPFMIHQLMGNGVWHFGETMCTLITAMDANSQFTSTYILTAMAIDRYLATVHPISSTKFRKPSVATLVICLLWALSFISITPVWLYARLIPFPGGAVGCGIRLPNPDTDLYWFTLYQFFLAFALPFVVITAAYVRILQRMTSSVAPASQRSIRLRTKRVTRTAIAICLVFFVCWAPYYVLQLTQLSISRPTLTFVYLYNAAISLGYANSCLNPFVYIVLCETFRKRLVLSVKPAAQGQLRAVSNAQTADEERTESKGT
pKi: −log10 of the molar value.

Field: example entries. Status: answers known.
CCCOc1ccsc1C(=O)N1CCC(N2CCN([C@@H](C)c3ccc(-c4ccc(F)c(Cl)c4)cc3)[C@H](C)C2)CC1 [Example 9]
7.82 to 8.00
CCCOc1cscc1C(=O)N1CCC(N2CCN([C@@H](C)c3ccc(-c4cc(Cl)cc(Cl)c4)cc3)[C@H](C)C2)CC1 [Example 19]
8.00 to 8.22
C[C@@H]1CN(C2CCN(C(=O)c3sccc3OCC3CC3)CC2)CCN1[C@@H](C)c1ccc(-c2cc(Cl)cc(Cl)c2)cc1 [Example 12]
8.00 to 8.22
CCOc1ccsc1C(=O)N1CCC(N2CCN([C@@H](C)c3ccc(-c4cc(Cl)cc(Cl)c4)cc3)[C@H](C)C2)CC1 [Example 2]
7.82 to 8.00
C[C@@H]1CN(C2CCN(C(=O)c3sccc3OCC3CC3)CC2)C[C@@H](C)N1Cc1ccc(-c2cc(Cl)cc(Cl)c2)cc1 [Example 11]
< 7.82

[in] Given the entry CCCOc1ccsc1C(=O)N1CCC(N2CCN([C@@H](C)c3ccc(-c4cc(Cl)cc(Cl)c4)cc3)[C@H](C)C2)CC1 [Example 6] , what pKi was observed with MCH receptor (Homo sapiens, UniProt Q99705)?
[out] 8.00 to 8.22

----------
Let's look at some compounds and their measured Ki.
Target: MCH receptor (Homo sapiens)
Construct: expressed in transfected cells; host or cells: CHO cells
Test: MCH Receptor Binding Assay ([125I]-MCH SPA, membranes from CHO cells expressing the MCH receptor)
Settings: CHO cell membranes, [125I]-MCH, read-out: MCH Receptor Activity (Ki rating)
Description: MCH Receptor Binding Assay: Membranes from CHO cells expressing the MCH receptor were prepared by lysing cells with 5 mM HEPES for 15 min at 4 C. Cell lysates were centrifuged ([…], 15 min) and the pellet was resuspended in 5 mM HEPES. […] Nonspecific binding was determined by including 1 μM MCH in the binding reaction. […] Plates were then analyzed in a TOPCOUNT microplate scintillation counter (Packard). Data was analyzed and Ki values were determined using GraphPad Prim.

Field: example entries. Status: answers known.
C[C@@H]1CN(C2(C)CCN(C(=O)c3sccc3OCC3CC3)CC2)CCN1[C@@H](C)c1ccc(-c2ccncc2)cc1
6 to 10 nM
CCCCOc1ccsc1C(=O)N1CCC(N2CCN([C@@H](C)c3ccc(-c4cc(Cl)cc(Cl)c4)cc3)[C@H](C)C2)CC1 [Example 7]
10 to 15 nM
CCOc1ccsc1C(=O)N1CCC(N2CCN([C@@H](C)c3ccc(-c4cc(Cl)cc(Cl)c4)cc3)[C@H](C)C2)CC1C (stereo partly shown) [Example 17]
> 15 nM

[in] Given the entry `CCCOc1ccsc1C(=O)N1CCC(C)(N2CCN([C@@H](C)c3ccc(-c4cc(Cl)cc(Cl)c4)cc3)[C@H](C)C2)CC1` , what Ki was observed with MCH receptor (Homo sapiens)?
[out] 6 to 10 nM

[in] Given the entry `CCCOc1ccsc1C(=O)N1CCC(N2CCN([C@@H](C)c3ccc(CCc4ccc5c(c4)OCO5)cc3)[C@H](C)C2)CC1` , what Ki was observed with MCH receptor (Homo sapiens)?
[out] 10 to 15 nM

[in] Given the entry `CCCOc1ccsc1C(=O)N1CCC(N2CCN([C@@H](C)c3ccc(CCc4ccc(Cl)cc4)cc3)[C@H](C)C2)CC1` , what Ki was observed with MCH receptor (Homo sapiens)?
[out] 10 to 15 nM

[in] Given the entry `CCOc1ccsc1C(=O)N1CCC(N2C[C@@H](C)N([C@@H](C)c3ccc(-c4cc(Cl)cc(Cl)c4)cc3)[C@H](C)C2)CC1` , what Ki was observed with MCH receptor (Homo sapiens)?
[out] 10 to 15 nM

[in] Given the entry `CCOc1ccsc1C(=O)N1CCC(N2CCN([C@@H](C)c3ccc(-c4ccc(Cl)s4)cc3)[C@H](C)C2)CC1` , what Ki was observed with MCH receptor (Homo sapiens)?
[out] > 15 nM

[in] Given the entry `CCOc1ccsc1C(=O)N1CCC(N2CCN([C@@H](C)c3ccc(CCc4ccc(C(F)(F)F)cc4)cc3)[C@H](C)C2)CC1` , what Ki was observed with MCH receptor (Homo sapiens)?
[out] 6 to 10 nM

[in] Given the entry CCOc1ccsc1C(=O)N1CCC(N2CCN([C@@H](C)c3ccc(-c4cc(Cl)cc(Cl)c4)cc3)[C@H](C)C2)CC1C (stereo partly shown) [Example 16] , what Ki was observed with MCH receptor (Homo sapiens)?
[out] 6 to 10 nM

FYI, the data here is from patent US7345042B2.
